Each recorded value in this set is attributed to the NIST ThermoML archive (doi:10.1016/j.jct.2012.08.022).

# activity coefficient listing for each entry below
Test: activity coefficient (dimensionless); of the first substance listed, at infinite dilution; xn = mol fraction of the nth substance listed
Conditions: 393 K; Liquid; Chromatography; x1 = 0
READOUT NAME: activity coefficient

MOLECULE | TEST VALUE
C[N+](=O)[O-] [nitromethane] + CCCCn1cc[n+](C)c1.O=S(=O)([O-])O | 1.08
CCOC(C)=O [ethyl acetate] + CCCCn1cc[n+](C)c1.O=S(=O)([O-])O | 13.8
COCCOC [1,2-dimethoxyethane] + Cn1cc[n+](C[Si](C)(C)C)c1.[Cl-] | 3.89
C1CCOC1 [tetrahydrofuran] + Cn1cc[n+](C[Si](C)(C)C)c1.[Cl-] | 4.79
C1COCCO1 [1,4-dioxane] + CCCCn1cc[n+](C)c1.O=S(=O)([O-])O | 3.8

---

Test: activity coefficient (dimensionless); of the first substance listed, at infinite dilution; xn = mol fraction of the nth substance listed
Settings: 333 K; Liquid; Chromatography; x1 = 0

COMPOUND | activity coefficient
C1CCOC1 [tetrahydrofuran] + CCCCn1cc[n+](C)c1.O=S(=O)([O-])O | 5.61
C1CCOC1 [tetrahydrofuran] + Cn1cc[n+](C[Si](C)(C)C)c1.[Cl-] | 2.93
C1COCCO1 [1,4-dioxane] + CCCCn1cc[n+](C)c1.O=S(=O)([O-])O | 2.78
CCOC(C)=O [ethyl acetate] + CCCCn1cc[n+](C)c1.O=S(=O)([O-])O | 9.95
C[N+](=O)[O-] [nitromethane] + Cn1cc[n+](C[Si](C)(C)C)c1.[Cl-] | 0.442
C[N+](=O)[O-] [nitromethane] + CCCCn1cc[n+](C)c1.O=S(=O)([O-])O | 0.771
COCCOC [1,2-dimethoxyethane] + CCCCn1cc[n+](C)c1.O=S(=O)([O-])O | 5.61
c1ccccc1 [benzene] + CCCCn1cc[n+](C)c1.O=S(=O)([O-])O | 4.95
CCOC(C)=O [ethyl acetate] + Cn1cc[n+](C[Si](C)(C)C)c1.[Cl-] | 4.27
Cc1ccccc1 [toluene] + Cn1cc[n+](C[Si](C)(C)C)c1.[Cl-] | 3.8
c1ccccc1 [benzene] + Cn1cc[n+](C[Si](C)(C)C)c1.[Cl-] | 2.3
CC#N [acetonitrile] + Cn1cc[n+](C[Si](C)(C)C)c1.[Cl-] | 0.659
COCCOC [1,2-dimethoxyethane] + Cn1cc[n+](C[Si](C)(C)C)c1.[Cl-] | 3.49
ClC(Cl)Cl [trichloromethane] + Cn1cc[n+](C[Si](C)(C)C)c1.[Cl-] | 0.153
CCO [ethanol] + Cn1cc[n+](C[Si](C)(C)C)c1.[Cl-] | 0.153
Cc1ccccc1 [toluene] + CCCCn1cc[n+](C)c1.O=S(=O)([O-])O | 9.22
CC#N [acetonitrile] + CCCCn1cc[n+](C)c1.O=S(=O)([O-])O | 1.31
CCCO [propan-1-ol] + Cn1cc[n+](C[Si](C)(C)C)c1.[Cl-] | 0.0747
CO [methanol] + Cn1cc[n+](C[Si](C)(C)C)c1.[Cl-] | 0.0373
C1COCCO1 [1,4-dioxane] + Cn1cc[n+](C[Si](C)(C)C)c1.[Cl-] | 1.95

---

# activity coefficient listing for each entry below
Assay: activity coefficient (dimensionless); of the first substance listed, at infinite dilution; xn = mol fraction of the nth substance listed
Details: 353 K; Liquid; Chromatography; x1 = 0
READOUT NAME: activity coefficient

MOLECULE | TEST VALUE
Cc1ccccc1 [toluene] + CCCCn1cc[n+](C)c1.O=S(=O)([O-])O | 9.7
C1COCCO1 [1,4-dioxane] + CCCCn1cc[n+](C)c1.O=S(=O)([O-])O | 2.99
C1CCOC1 [tetrahydrofuran] + Cn1cc[n+](C[Si](C)(C)C)c1.[Cl-] | 3.7
C1COCCO1 [1,4-dioxane] + Cn1cc[n+](C[Si](C)(C)C)c1.[Cl-] | 2.07
COCCOC [1,2-dimethoxyethane] + Cn1cc[n+](C[Si](C)(C)C)c1.[Cl-] | 3.56
CO [methanol] + Cn1cc[n+](C[Si](C)(C)C)c1.[Cl-] | 0.0421
C1CCOC1 [tetrahydrofuran] + CCCCn1cc[n+](C)c1.O=S(=O)([O-])O | 6.6
C[N+](=O)[O-] [nitromethane] + Cn1cc[n+](C[Si](C)(C)C)c1.[Cl-] | 0.477
CC#N [acetonitrile] + Cn1cc[n+](C[Si](C)(C)C)c1.[Cl-] | 0.695
Cc1ccccc1 [toluene] + Cn1cc[n+](C[Si](C)(C)C)c1.[Cl-] | 4.07
CCCO [propan-1-ol] + Cn1cc[n+](C[Si](C)(C)C)c1.[Cl-] | 0.0878
CCOC(C)=O [ethyl acetate] + Cn1cc[n+](C[Si](C)(C)C)c1.[Cl-] | 5.14
ClC(Cl)Cl [trichloromethane] + Cn1cc[n+](C[Si](C)(C)C)c1.[Cl-] | 0.2
CCOC(C)=O [ethyl acetate] + CCCCn1cc[n+](C)c1.O=S(=O)([O-])O | 11.7
CC#N [acetonitrile] + CCCCn1cc[n+](C)c1.O=S(=O)([O-])O | 1.28
C[N+](=O)[O-] [nitromethane] + CCCCn1cc[n+](C)c1.O=S(=O)([O-])O | 0.83
c1ccccc1 [benzene] + Cn1cc[n+](C[Si](C)(C)C)c1.[Cl-] | 2.6
CCO [ethanol] + Cn1cc[n+](C[Si](C)(C)C)c1.[Cl-] | 0.158
COCCOC [1,2-dimethoxyethane] + CCCCn1cc[n+](C)c1.O=S(=O)([O-])O | 7.03
c1ccccc1 [benzene] + CCCCn1cc[n+](C)c1.O=S(=O)([O-])O | 5.36

---

Experiment: activity coefficient (dimensionless); of the first substance listed, at infinite dilution; xn = mol fraction of the nth substance listed
Conditions: 413 K; Liquid; Chromatography; x1 = 0
activity coefficient below 4 gives Not met; activity coefficient at or above it gives Met.

MOLECULE | LABEL
ClC(Cl)Cl [trichloromethane] + Cn1cc[n+](C[Si](C)(C)C)c1.[Cl-] | Not met
C[N+](=O)[O-] [nitromethane] + CCCCn1cc[n+](C)c1.O=S(=O)([O-])O | Not met
CC#N [acetonitrile] + CCCCn1cc[n+](C)c1.O=S(=O)([O-])O | Not met
Cc1ccccc1 [toluene] + Cn1cc[n+](C[Si](C)(C)C)c1.[Cl-] | Met
CC#N [acetonitrile] + Cn1cc[n+](C[Si](C)(C)C)c1.[Cl-] | Not met
c1ccccc1 [benzene] + CCCCn1cc[n+](C)c1.O=S(=O)([O-])O | Met
Cc1ccccc1 [toluene] + CCCCn1cc[n+](C)c1.O=S(=O)([O-])O | Met
C[N+](=O)[O-] [nitromethane] + Cn1cc[n+](C[Si](C)(C)C)c1.[Cl-] | Not met
COCCOC [1,2-dimethoxyethane] + CCCCn1cc[n+](C)c1.O=S(=O)([O-])O | Met
C1COCCO1 [1,4-dioxane] + CCCCn1cc[n+](C)c1.O=S(=O)([O-])O | Met
c1ccccc1 [benzene] + Cn1cc[n+](C[Si](C)(C)C)c1.[Cl-] | Met
C1COCCO1 [1,4-dioxane] + Cn1cc[n+](C[Si](C)(C)C)c1.[Cl-] | Not met
COCCOC [1,2-dimethoxyethane] + Cn1cc[n+](C[Si](C)(C)C)c1.[Cl-] | Not met

---

Assay: activity coefficient (dimensionless); of the first substance listed, at infinite dilution; xn = mol fraction of the nth substance listed
Conditions: 393 K; Liquid; Chromatography; x1 = 0
Assign labels as follows, please: YES for activity coefficient below 4; NO for activity coefficient equal to or exceeding 4.

MOLECULE | LABEL
ClC(Cl)Cl [trichloromethane] + Cn1cc[n+](C[Si](C)(C)C)c1.[Cl-] | YES
C1COCCO1 [1,4-dioxane] + Cn1cc[n+](C[Si](C)(C)C)c1.[Cl-] | YES
C1CCOC1 [tetrahydrofuran] + CCCCn1cc[n+](C)c1.O=S(=O)([O-])O | NO
c1ccccc1 [benzene] + Cn1cc[n+](C[Si](C)(C)C)c1.[Cl-] | YES
Cc1ccccc1 [toluene] + CCCCn1cc[n+](C)c1.O=S(=O)([O-])O | NO
CC#N [acetonitrile] + Cn1cc[n+](C[Si](C)(C)C)c1.[Cl-] | YES
CCOC(C)=O [ethyl acetate] + Cn1cc[n+](C[Si](C)(C)C)c1.[Cl-] | NO
C[N+](=O)[O-] [nitromethane] + Cn1cc[n+](C[Si](C)(C)C)c1.[Cl-] | YES
c1ccccc1 [benzene] + CCCCn1cc[n+](C)c1.O=S(=O)([O-])O | NO
CC#N [acetonitrile] + CCCCn1cc[n+](C)c1.O=S(=O)([O-])O | YES
Cc1ccccc1 [toluene] + Cn1cc[n+](C[Si](C)(C)C)c1.[Cl-] | NO
COCCOC [1,2-dimethoxyethane] + CCCCn1cc[n+](C)c1.O=S(=O)([O-])O | NO
